Documented CC50 at 72 h across a set of compounds
measurement_notes: Cytotoxicity against human Huh5-2 cells after 3 days by WST-1 assay
Assay type: cell-based, Huh-5-2
measured_metric: CC50 at 72 h (µM)

                             smiles_notation  measured_metric  measurement_units  relation_operator  numeric_result
 0  O=c1c(O)c(-c2ccccc2)oc2cc(OCc3ccccc3Br)cc(O)c12     CC50 at 72 h                 µM                  >             100
 1  Cc1ccc(COc2cc(O)c3c(=O)c(O)c(-c4ccccc4)oc3c2)cc1     CC50 at 72 h                 µM                  =              88
 2  O=c1c(O)c(-c2ccccc2)oc2cc(OCc3ccccc3[N+](=O)[O-])cc(O)c12     CC50 at 72 h                 µM                  =              32
 3  O=c1c(O)c(-c2ccccc2)oc2cc(OCc3cccc(Cl)c3)cc(O)c12     CC50 at 72 h                 µM                  >             100
 4  Cc1ccccc1COc1cc(O)c2c(=O)c(O)c(-c3ccccc3)oc2c1     CC50 at 72 h                 µM                  =              17
 5  O=c1c(O)c(-c2ccccc2)oc2cc(OCc3ccccc3Cl)cc(O)c12     CC50 at 72 h                 µM                  >             100
 6  O=c1c(O)c(-c2ccccc2)oc2cc(OCc3ccc(Br)cc3)cc(O)c12     CC50 at 72 h                 µM                  >             100
 7  O=c1c(O)c(-c2ccccc2)oc2cc(OCc3cccc(Br)c3)cc(O)c12     CC50 at 72 h                 µM                  >             100
 8  N#Cc1ccccc1COc1cc(O)c2c(=O)c(O)c(-c3ccccc3)oc2c1     CC50 at 72 h                 µM                  =              22
 9  N#Cc1ccc(-c2oc3cc(OCc4ccc(Cl)cc4)cc(O)c3c(=O)c2O)cc1     CC50 at 72 h                 µM                  =              67
10  O=c1c(O)c(-c2ccccc2)oc2cc(OCc3ccc(Cl)cc3)cc(O)c12     CC50 at 72 h                 µM                  >             100
11  COc1cccc(COc2cc(O)c3c(=O)c(O)c(-c4ccccc4)oc3c2)c1     CC50 at 72 h                 µM                  >             100
12  Cc1cccc(COc2cc(O)c3c(=O)c(O)c(-c4ccccc4)oc3c2)c1     CC50 at 72 h                 µM                  =              35
13  N#Cc1ccc(COc2cc(O)c3c(=O)c(O)c(-c4ccccc4)oc3c2)cc1     CC50 at 72 h                 µM                  =              94
14  O=c1c(O)c(-c2ccccc2)oc2cc(OCc3ccc([N+](=O)[O-])cc3)cc(O)c12     CC50 at 72 h                 µM                  =              93
15  O=c1c(O)c(-c2ccc(C(F)(F)F)cc2)oc2cc(OCc3ccc(Cl)cc3)cc(O)c12     CC50 at 72 h                 µM                  =              73
